From: PubChem BioAssay AID1963841

tested on: 439559-082-T-J2-PDC spheroid viability; assay: Anticancer human tumor 439559-082-T-J2-PDC patient-derived colon adenocarcinoma cell line growth inhibition [POLQ]; conditions: second compound 1 µM; first compound 0.1 µM; stronger effect = lower value; spheroids with HUVEC and MSC;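 further: spheroids exposed to compounds for seven days before readout; 100% = DMSO vehicle control viability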
Parameter: viability, T/C. Scope: all listed entries.
# number only, unit % dropped from output

Check out these entries, answers already filled in.
compound	viability, T/C [%]
C=CCn1c(=O)c2cnc(Nc3ccc(N4CCN(C)CC4)cc3)nc2n1-c1cccc(C(C)(C)O)n1 + Cc1cccc(N(C)C(=O)C2C(O)CCN2c2nc(C)cc(C(F)(F)F)c2C#N)c1	102
C=CC(=O)N1CCN(c2nc(=O)n(-c3c(C)ccnc3C(C)C)c3nc(-c4c(O)cccc4F)c(F)cc23)C(C)C1 (configuration not stated) + Nc1ccc(C#CCN(C(=O)Cc2ncc(C(F)(F)F)cc2C(F)(F)F)c2ccc(F)cc2)nn1	97.1
CC1COCCN1c1cc(C2(S(C)(=N)=O)CC2)nc(-c2ccnc3[nH]ccc23)n1 (configuration not stated) + COC1C(OC(N)=O)C(O)C(Oc2ccc3c(O)c(NC(=O)c4ccc(O)c(CC=C(C)C)c4)c(=O)oc3c2C)OC1(C)C	99.3
COc1cccc(OCCCN)c1-c1cc(Nc2cnc(C#N)cn2)n[nH]1 + COC1C(OC(N)=O)C(O)C(Oc2ccc3c(O)c(NC(=O)c4ccc(O)c(CC=C(C)C)c4)c(=O)oc3c2C)OC1(C)C	52.9
O=C(c1cc(Cc2n[nH]c(=O)c3ccccc23)ccc1F)N1CCN(C(=O)C2CC2)CC1 + COC1C(OC(N)=O)C(O)C(Oc2ccc3c(O)c(NC(=O)c4ccc(O)c(CC=C(C)C)c4)c(=O)oc3c2C)OC1(C)C	102
CNCc1ccc(-c2[nH]c3cc(F)cc4c3c2CCNC4=O)cc1 + Nc1ccc(C#CCN(C(=O)Cc2ncc(C(F)(F)F)cc2C(F)(F)F)c2ccc(F)cc2)nn1	97.4
C#Cc1c(F)ccc2cc(O)cc(-c3ncc4c(N5CC6CCC(C5)N6)nc(OCC56CCCN5CC(F)C6)nc4c3F)c12 (configuration not stated) + Nc1ccc(C#CCN(C(=O)Cc2ncc(C(F)(F)F)cc2C(F)(F)F)c2ccc(F)cc2)nn1	82.7
COc1cc2cc(C(=O)CCC(=O)O)sc2cc1OC + Nc1ccc(C#CCN(C(=O)Cc2ncc(C(F)(F)F)cc2C(F)(F)F)c2ccc(F)cc2)nn1	103

Measured viability, T/C of Cn1ncnc1[C@H]1c2n[nH]c(=O)c3cc(F)cc(c23)N[C@@H]1c1ccc(F)cc1 + Nc1ccc(C#CCN(C(=O)Cc2ncc(C(F)(F)F)cc2C(F)(F)F)c2ccc(F)cc2)nn1 : 102

Measured viability, T/C of CC(C)n1c(=O)n(C)c2cnc3cc(F)c(-c4ccc(OCCCN5CCCCC5)nc4)cc3c21 + Nc1ccc(C#CCN(C(=O)Cc2ncc(C(F)(F)F)cc2C(F)(F)F)c2ccc(F)cc2)nn1 : 99.7

Measured viability, T/C of CC1COCCN1c1cc(C2(S(C)(=N)=O)CC2)nc(-c2ccnc3[nH]ccc23)n1 (configuration not stated) + Nc1ccc(C#CCN(C(=O)Cc2ncc(C(F)(F)F)cc2C(F)(F)F)c2ccc(F)cc2)nn1 : 105

Measured viability, T/C of C=CCn1c(=O)c2cnc(Nc3ccc(N4CCN(C)CC4)cc3)nc2n1-c1cccc(C(C)(C)O)n1 + COC1C(OC(N)=O)C(O)C(Oc2ccc3c(O)c(NC(=O)c4ccc(O)c(CC=C(C)C)c4)c(=O)oc3c2C)OC1(C)C : 97.3

Measured viability, T/C of C#Cc1c(F)ccc2cc(O)cc(-c3ncc4c(N5CC6CCC(C5)N6)nc(OCC56CCCN5CC(F)C6)nc4c3F)c12 (configuration not stated) + Cc1cccc(N(C)C(=O)C2C(O)CCN2c2nc(C)cc(C(F)(F)F)c2C#N)c1 : 78.1

Measured viability, T/C of O=C(Nc1ccc(O)c(NS(=O)(=O)c2ccc(F)cc2)c1)c1ccc(-c2ccccc2)cc1 + Cc1cccc(N(C)C(=O)C2C(O)CCN2c2nc(C)cc(C(F)(F)F)c2C#N)c1 : 93.6

Measured viability, T/C of Nc1ccn(C2OC(CO)C(O)C2(F)F)c(=O)n1 (configuration not stated) + Nc1ccc(C#CCN(C(=O)Cc2ncc(C(F)(F)F)cc2C(F)(F)F)c2ccc(F)cc2)nn1 : 85.6

Measured viability, T/C of CC1COCCN1c1cc(C2(S(C)(=N)=O)CC2)nc(-c2ccnc3[nH]ccc23)n1 (configuration not stated) + Cc1cccc(N(C)C(=O)C2C(O)CCN2c2nc(C)cc(C(F)(F)F)c2C#N)c1 : 98.2

Measured viability, T/C of O=c1[nH]cc(F)c(=O)[nH]1 + Cc1cccc(N(C)C(=O)C2C(O)CCN2c2nc(C)cc(C(F)(F)F)c2C#N)c1 : 94.4

Measured viability, T/C of COc1cc2cc(C(=O)CCC(=O)O)sc2cc1OC + COC1C(OC(N)=O)C(O)C(Oc2ccc3c(O)c(NC(=O)c4ccc(O)c(CC=C(C)C)c4)c(=O)oc3c2C)OC1(C)C : 99.3

Measured viability, T/C of O=c1[nH]cc(F)c(=O)[nH]1 + COC1C(OC(N)=O)C(O)C(Oc2ccc3c(O)c(NC(=O)c4ccc(O)c(CC=C(C)C)c4)c(=O)oc3c2C)OC1(C)C : 96.7

Measured viability, T/C of COc1cccc(OCCCN)c1-c1cc(Nc2cnc(C#N)cn2)n[nH]1 + Nc1ccc(C#CCN(C(=O)Cc2ncc(C(F)(F)F)cc2C(F)(F)F)c2ccc(F)cc2)nn1 : 70.6

Measured viability, T/C of CCCS(=O)(=O)Nc1ccc(F)c(C(=O)c2c[nH]c3ncc(-c4ccc(Cl)cc4)cc23)c1F + Nc1ccc(C#CCN(C(=O)Cc2ncc(C(F)(F)F)cc2C(F)(F)F)c2ccc(F)cc2)nn1 : 68.7

Measured viability, T/C of COc1cc2cc(C(=O)CCC(=O)O)sc2cc1OC + Cc1cccc(N(C)C(=O)C2C(O)CCN2c2nc(C)cc(C(F)(F)F)c2C#N)c1 : 107
